B1: FAM107A (parent)
chain: LQRVLEHRRRNQLIKKKKEELEAK

variants of: B1; assay: protein stability index of a GFP-peptide fusion (GPS, HEK-293T) (PSI 1-6); higher = more stable; details: c terminus: a fixed tail appended;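 also: lentivirally expressed fusions sorted by FACS into six bins by GFP to DsRed ratio, PSI derived from sequencing read proportions per bin multiplied by bin number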
REPORTED ENDPOINT: protein stability index
Just the number, please.

Would you please look over these solved cases?
{"SEQUENCE CODE": "LQRVLEHRRRGQLIKKKKEELEAK [N11G]", "protein stability index": 3.57}
{"SEQUENCE CODE": "LQRVLEHRRRNQLIKKKKEELRAK [E22R]", "protein stability index": 2.26}
{"SEQUENCE CODE": "LQRVLEHRRRNQLIKKKKEELNAK [E22N]", "protein stability index": 2.82}
{"SEQUENCE CODE": "LQRVLEHRRRTQLIKKKKEELEAK [N11T]", "protein stability index": 3.38}
{"SEQUENCE CODE": "LQIVLEHRRRNQLIKKKKEELEAK [R3I]", "protein stability index": 2.09}
{"SEQUENCE CODE": "LQRVLEQRRRNQLIKKKKEELEAK [H7Q]", "protein stability index": 3.75}
{"SEQUENCE CODE": "LQRVLEHRRRNQLICKKKEELEAK [K15C]", "protein stability index": 3.52}
{"SEQUENCE CODE": "LQRVLEHRRRNQLIKKKKEELEAP [K24P]", "protein stability index": 3.44}

// Input: LQRVLEHRRRNQLIKKKKEESEAK [L21S] . Output its protein stability index only. 3.92

// Input: LQRVLEHRRRNMLIKKKKEELEAK [Q12M] . Output its protein stability index only. 3.45

// Input: LQRVLEHRRRNQLIGKKKEELEAK [K15G] . Output its protein stability index only. 4.49

// Input: LQRVLEHRRRNQLIKKKKFELEAK [E19F] . Output its protein stability index only. 2.22

// Input: LQRELEHRRRNQLIKKKKEELEAK [V4E] . Output its protein stability index only. 4.49

// Input: LQRVLEHRRRNQLLKKKKEELEAK [I14L] . Output its protein stability index only. 3.24

// Input: LQRVLEHRRRNQLIKKKKPELEAK [E19P] . Output its protein stability index only. 3.41

// Input: LQRVLEHRRRNQLIKKKKEEHEAK [L21H] . Output its protein stability index only. 3.77

// Input: LQRVLEHRRRNQLIKKFKEELEAK [K17F] . Output its protein stability index only. 3.73

// Input: LQRVLEHRRRNQLIKKKKEETEAK [L21T] . Output its protein stability index only. 3.74

// Input: LQRVWEHRRRNQLIKKKKEELEAK [L5W] . Output its protein stability index only. 3.71

// Input: LQRVLEHRRRNQLIKTKKEELEAK [K16T] . Output its protein stability index only. 3.85

// Input: LQRVYEHRRRNQLIKKKKEELEAK [L5Y] . Output its protein stability index only. 2.98

// Input: LQRVLEHRRHNQLIKKKKEELEAK [R10H] . Output its protein stability index only. 3.2

// Input: LARVLEHRRRNQLIKKKKEELEAK [Q2A] . Output its protein stability index only. 2.93

// Input: LERVLEHRRRNQLIKKKKEELEAK [Q2E] . Output its protein stability index only. 3.89

// Input: LQRVLEHRRRNYLIKKKKEELEAK [Q12Y] . Output its protein stability index only. 2.8

// Input: LQRVLEHRRRNQLIKKKKEELECK [A23C] . Output its protein stability index only. 2.98
